Origin of measurements: patent US11814445B2

Measured pIC50 accompanies every entry in the list below.
Target: PCSK9 (Homo sapiens, UniProt Q8NBP7)
Construct: biotin (biotinylated)
Sequence (Q8NBP7 153-692): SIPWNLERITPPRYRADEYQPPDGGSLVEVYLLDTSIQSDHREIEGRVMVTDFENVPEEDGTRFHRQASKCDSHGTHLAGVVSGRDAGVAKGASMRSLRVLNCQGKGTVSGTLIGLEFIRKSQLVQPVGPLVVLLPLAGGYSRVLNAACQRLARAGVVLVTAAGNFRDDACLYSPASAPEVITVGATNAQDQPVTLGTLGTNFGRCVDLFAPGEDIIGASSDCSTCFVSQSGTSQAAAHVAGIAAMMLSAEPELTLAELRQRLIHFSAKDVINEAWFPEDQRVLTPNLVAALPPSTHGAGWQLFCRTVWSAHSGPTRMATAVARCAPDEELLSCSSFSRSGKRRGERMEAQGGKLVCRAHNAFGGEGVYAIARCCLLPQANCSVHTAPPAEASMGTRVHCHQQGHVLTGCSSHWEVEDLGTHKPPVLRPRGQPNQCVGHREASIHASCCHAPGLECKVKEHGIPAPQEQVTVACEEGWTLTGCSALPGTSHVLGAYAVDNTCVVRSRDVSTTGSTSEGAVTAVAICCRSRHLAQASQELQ
Assay: PCSK9 Alexa FRET Standard assay (displacement of AlexaFluor647 tagged cyclic peptide Reagent A)
Assay type: binding
Conditions: 0.5 nM PCSK9, 20 nM AF cyclic peptide Reagent A
pIC50: −log10 of the molar value. Numbered stars: 1 amine (or outer) side, 2 acyl side, 3 side chain; on linkers, the order of the positions; unused ones are H or OH. Bridge positions count the residues as written; N and C are the ends. Square brackets hold non-standard residues; d marks the D form. Peptide text beside a SMILES is read from it. ξ: configuration not given here. Trp(5-F) = N[C@@H](Cc1c[nH]c2ccc(F)cc12)C(=O)O; Bip = N[C@@H](Cc1ccc(-c2ccccc2)cc1)C(=O)O; X1 = O=C(CCSCc1cccc(CSCCN[*:1])c1)[*:2]; Phe(4-F) = N[C@@H](Cc1ccc(F)cc1)C(=O)O; mXylylene = c1cc(C[*:1])cc(C[*:2])c1; ξP = O=C(O)C1CCCN1; Mpa = O=C(O)CCS

Sample answers from the record:
{"compound": "COc1ccc(C[C@@H]2NC(=O)[C@H]([C@@H](C)O)NC(=O)CN3CCCCCOc4cccc(c4)C[C@@H](NC(=O)[C@@H](C)NC(=O)[C@H](C)NC(=O)CCSCc4cccc(c4)CSCCNC(=O)[C@]4(C)CCCN4C2=O)C(=O)N[C@@H](Cc2c[nH]c4ccc(F)cc24)C3=O)cc1 [Compound 125]", "experimental_result": "6.00 to 7.00"}
{"compound": "NCCCC[C@@H]1NC(=O)CCSCc2cccc(c2)CSCCNC(=O)C2CCCN2C(=O)[C@H](Cc2ccc(O)cc2)NC(=O)CNC(=O)[C@H]2CCCN2C(=O)[C@H](Cc2c[nH]c3ccc(F)cc23)NC(=O)[C@H](Cc2c[nH]c3ccc(F)cc23)NC(=O)CNC1=O (stereo partly shown) [Compound 041] (cyclo(G[Trp(5-F)][Trp(5-F)][dP]GY[ξP][X1]K))", "experimental_result": "7.00 to 9.00"}
{"compound": "C[C@@H]1NC(=O)[C@@H]2CCCN2C(=O)[C@H](Cc2ccc(-c3ccccc3)cc2)NC(=O)[C@H](Cc2c[nH]c3ccc(F)cc23)NC(=O)CNC(=O)[C@H](CCCCN)NC(=O)CCSCc2cccc(c2)CSC[C@@H](C(N)=O)NC(=O)[C@@H]2CCCN2C(=O)[C@H](Cc2ccc(O)cc2)NC1=O [Compound 017] ([Mpa]KG[Trp(5-F)][Bip]PAYPC-NH2; linker 1-10 via mXylylene)", "experimental_result": "4.92 to 6.00"}

We next turn to a different compound, shown below.
In: Need pIC50 of C[C@@H]1NC(=O)[C@@H]2CCCN2C(=O)[C@H](Cc2ccc(F)cc2)NC(=O)[C@H](Cc2c[nH]c3ccc(F)cc23)NC(=O)CNC(=O)[C@H](CCCCN)NC(=O)CCSCc2cccc(c2)CSC[C@@H](C(N)=O)NC(=O)[C@@H]2CCCN2C(=O)[C@H](Cc2ccc(O)cc2)NC1=O [Compound 006] ([Mpa]KG[Trp(5-F)][Phe(4-F)]PAYPC-NH2; linker 1-10 via mXylylene) , thanks.
Out: 6.00 to 7.00
